- System: MDA-MB-436
- assay.explanation: Peptide array-whole cell binding assay
- Assay type: cell-based
- experimental.context: peptide conjugated to cellulose membrane (amino-PEG500), no free C-terminus; cells 75 × 10^3 cells/mL, 37 °C, 4 h; CyQUANT fluorescence relative to peptide 1; spots in duplicate
- Procedure: Peptide array on the cellulose membrane was used to evaluate the binding of each peptide to different cell lines. […] For the binding assay, the peptide array was incubated with the cells in sequential steps as described previously. […] The fluorescence intensity of cancer cells read using chemidoc imager was normalized using the non-cancer cell fluorescence intensity. […]
Relative Cell Adhesion MDA-MB-436 for assorted substances

# substance, measured.on, Relative Cell Adhesion MDA-MB-436
rows = [
    ("YHWYGATPQNVI [Peptide 11]", "MDA-MB-436", 1.0),
    ("Peptide 4: positive control peptide p160, VPWXEPAYQRFL, binds keratin 1 [reference compound]", "MDA-MB-436", 1.1),
    ("YRWYGYTPQNVI [Peptide 25]", "MDA-MB-436", 1.0),
    ("YHWYGYTPQNV [Peptide 18]", "MDA-MB-436", 1.3),
    ("YHWYGYTPKNVI [Peptide 26]", "MDA-MB-436", 1.0),
    ("YHWYGYAPQNVI [Peptide 12]", "MDA-MB-436", 1.0),
    ("YGPWYNHYITQV [Peptide 3]", "MDA-MB-436", 1.1),
    ("YHWYGYTPQAVI [Peptide 15]", "MDA-MB-436", 0.9),
    ("Peptide 2: scrambled negative control sequence WQTNYIHPYVYG", "MDA-MB-436", 1.1),
    ("HWYGYTPQNVI [Peptide 20]", "MDA-MB-436", 1.0),
    ("FHWYGYTPQNVI [Peptide 28]", "MDA-MB-436", 0.8),
    ("YHWYGYTAQNVI [Peptide 13]", "MDA-MB-436", 1.1),
    ("YHAYGYTPQNVI [Peptide 8]", "MDA-MB-436", 0.9),
]
